tested on: NCI-H1734; assay: relative viability (nuclei count vs DMSO), 5 days (fraction); higher = more cells survive; details: first compound 0.01 µM
The label true is reserved for relative viability strictly under 0.8; false covers values equal to or above it.

[[record]]
compound = "O=c1cc(N2CCOCC2)oc2c(-c3cccc4c3sc3ccccc34)cccc12 + C[C@@H](Oc1cc(-c2cnn(C3CCNCC3)c2)cnc1N)c1c(Cl)ccc(F)c1Cl [Crizotinib] (partner 1 µM)"
assigned_category = "true"

[[record]]
compound = "CCN(CC)CCCCNc1ncc2cc(-c3cc(OC)cc(OC)c3)c(NC(=O)NC(C)(C)C)nc2n1 + CC1(C)CCC(c2ccc(Cl)cc2)=C(CN2CCN(c3ccc(C(=O)NS(=O)(=O)c4ccc(N[C@H](CCN5CCOCC5)CSc5ccccc5)c(S(=O)(=O)C(F)(F)F)c4)cc3)CC2)C1 [Navitoclax] (partner 0.5 µM)"
assigned_category = "false"

[[record]]
compound = "CCN(CC)CCCCNc1ncc2cc(-c3cc(OC)cc(OC)c3)c(NC(=O)NC(C)(C)C)nc2n1 + CC(=O)Nc1cccc(-n2c(=O)n(C3CC3)c(=O)c3c(Nc4ccc(I)cc4F)n(C)c(=O)c(C)c32)c1 [Trametinib] (partner 0.02 µM)"
assigned_category = "true"

[[record]]
compound = "O=c1cc(N2CCOCC2)oc2c(-c3cccc4c3sc3ccccc34)cccc12 + Cc1cc(Nc2cc(N3CCN(C)CC3)nc(Sc3ccc(NC(=O)C4CC4)cc3)n2)n[nH]1 [Tozasertib] (partner 0.1 µM)"
assigned_category = "true"

[[record]]
compound = "O=c1cc(N2CCOCC2)oc2c(-c3cccc4c3sc3ccccc34)cccc12 + CC(=O)Nc1cccc(-n2c(=O)n(C3CC3)c(=O)c3c(Nc4ccc(I)cc4F)n(C)c(=O)c(C)c32)c1 [Trametinib] (partner 0.02 µM)"
assigned_category = "true"

[[record]]
compound = "CCN(CC)CCCCNc1ncc2cc(-c3cc(OC)cc(OC)c3)c(NC(=O)NC(C)(C)C)nc2n1 + COc1cc2c(Oc3ccc(NC(=O)C4(C(=O)Nc5ccc(F)cc5)CC4)cc3F)ccnc2cc1OCCCN1CCOCC1 [Foretinib] (partner 0.25 µM)"
assigned_category = "false"

[[record]]
compound = "O=c1cc(N2CCOCC2)oc2c(-c3cccc4c3sc3ccccc34)cccc12 + CC1(C)CCC(c2ccc(Cl)cc2)=C(CN2CCN(c3ccc(C(=O)NS(=O)(=O)c4ccc(N[C@H](CCN5CCOCC5)CSc5ccccc5)c(S(=O)(=O)C(F)(F)F)c4)cc3)CC2)C1 [Navitoclax] (partner 0.5 µM)"
assigned_category = "false"

[[record]]
compound = "O=c1cc(N2CCOCC2)oc2c(-c3cccc4c3sc3ccccc34)cccc12 + CS(=O)(=O)N1CCN(Cc2cc3nc(-c4cccc5[nH]ncc45)nc(N4CCOCC4)c3s2)CC1 [Pictilisib] (partner 1 µM)"
assigned_category = "true"


###

test system: CAL-12T; experiment: relative viability (nuclei count vs DMSO), 5 days (fraction); higher = more cells survive; conditions: first compound 6.325 µM
In this section we review reported relative viability values for a set of compounds.
READOUT KIND: relative viability

[[record]]
compound = "COCC1(CO)C(=O)C2CCN1CC2 (stereo not given) [PRIMA-1MET] + Nc1nc2[nH]cc(CCc3ccc(C(=O)N[C@@H](CCC(=O)O)C(=O)O)cc3)c2c(=O)[nH]1 [Pemetrexed] (partner 0.2 µM)"
measured = 1.36

[[record]]
compound = "COCC1(CO)C(=O)C2CCN1CC2 (stereo not given) [PRIMA-1MET] + CC(=O)c1c(C)c2cnc(Nc3ccc(N4CCNCC4)cn3)nc2n(C2CCCC2)c1=O [Palbociclib] (partner 0.5 µM)"
measured = 0.439

[[record]]
compound = "COCC1(CO)C(=O)C2CCN1CC2 (stereo not given) [PRIMA-1MET] + Cc1nc(Nc2ncc(C(=O)Nc3c(C)cccc3Cl)s2)cc(N2CCN(CCO)CC2)n1 [Dasatinib] (partner 0.075 µM)"
measured = 0.364

[[record]]
compound = "COCC1(CO)C(=O)C2CCN1CC2 (stereo not given) [PRIMA-1MET] + C[C@]1(O)C[C@@H](c2nc(-c3ccc4ccc(-c5ccccc5)nc4c3)c3c(N)nccn32)C1 [Linsitinib] (partner 1 µM)"
measured = 0.85

[[record]]
compound = "COCC1(CO)C(=O)C2CCN1CC2 (stereo not given) [PRIMA-1MET] + O=C(CCCCCCC(=O)Nc1ccccc1)NO [Vorinostat] (partner 1 µM)"
measured = 0.589

